The origin of these recorded values is patent US20180327367A1.

test system: Escherichia coli ATCC 25922; test: Minimum inhibitory concentration, broth micro-dilution (CLSI), E. coli; type: cell-based; conditions: Escherichia coli, ATCC25922, 22 h, read-out: MIC (μg/mL) E. coli, E. coli ATCC 25922; 35° C., 22 hours
Answer each item with its documented MIC.
Give the number; µg/mL is assumed, so skip it.

(Q) State its MIC for this molecule: CCCCCCCCCC(=O)N[C@H](C)C(=O)NCC(=O)N[C@@H](CCN)C(=O)N(C)[C@@H]1C(=O)N[C@@H](C)C(=O)N[C@H](C(=O)NCC#N)Cc2ccc(OCCN)c(c2)-c2cc1ccc2OCCN [Compound 366]
(A) 48

(Q) State its MIC for this molecule: CCCCc1ccc(C(=O)NCC(=O)N[C@@H](CCN)C(=O)N(C)[C@@H]2C(=O)N[C@@H](C)C(=O)N[C@H](C(=O)NCC#N)Cc3ccc(OCCN)c(c3)-c3cc2ccc3OCCN)c(C)c1 [Compound 370]
(A) 16

(Q) State its MIC for this molecule: CCCCCCCCCC(=O)NCC(=O)NCC(=O)N[C@@H](CCN)C(=O)N(C)[C@@H]1C(=O)N[C@@H](C)C(=O)N[C@H](C(=O)NCC#N)Cc2ccc(OCCN)c(c2)-c2cc1ccc2OCCN [Compound 362]
(A) 32
